Below, each entry is listed with its recorded Ratio OD(Variant)/OD(WT).
ASSAY SYSTEM: HRgpA-6H (Porphyromonas gingivalis) (UniProt P28784)
ASSAY EXPLANATION: ELISA, FASEBA Fab on coated HRgpA-6H
Please respond with just the number, no unit label.

[[record]]
binder = "KB001 mouse Fab VL S26T (Fab, V domains shown) VH: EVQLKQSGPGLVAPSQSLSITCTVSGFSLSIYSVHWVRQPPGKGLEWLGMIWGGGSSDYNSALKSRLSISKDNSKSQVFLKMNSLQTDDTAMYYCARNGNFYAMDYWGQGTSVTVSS VL: QIVLTQSPAIMSASLGERVTMTCTATSSVSSSFLHWYQQKPGSSPQLWIYSTSNLASGVPARFSGSGSGTSYSLTISSMEAEDAATYYCHQYHHSPYIYTFGGGTKLEIK"
readout_kind = "Ratio OD(Variant)/OD(WT)"
value_measured = 0.972


Could you now consider this next binder?
Request: Using the record for KB001 mouse Fab VL S27M (Fab, V domains shown) VH: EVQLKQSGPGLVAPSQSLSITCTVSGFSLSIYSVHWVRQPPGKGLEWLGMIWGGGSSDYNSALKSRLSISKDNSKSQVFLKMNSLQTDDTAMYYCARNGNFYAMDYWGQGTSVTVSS VL: QIVLTQSPAIMSASLGERVTMTCTASMSVSSSFLHWYQQKPGSSPQLWIYSTSNLASGVPARFSGSGSGTSYSLTISSMEAEDAATYYCHQYHHSPYIYTFGGGTKLEIK , report its Ratio OD(Variant)/OD(WT).
Response: 0.945
